The measured values listed here are drawn from patent US20090306133A1.

Target: Human recombinant Acetyl-CoA Carboxylase 2 (ACC2) (Homo sapiens)
Experiment: Assay Y: ACC2 inhibition, inorganic phosphate (Malachite Green)
Type: biochemical
Settings: Assay Y: room temperature, 3 hr, 15 min preincubation
quantityName: IC50 (nM)

Would you please look over these solved cases?
{"compound": "CC(C)(C)OC(=O)NC[C@H]1CC[C@H](CNC(=O)c2ccnc(-c3ccccc3)c2)CC1 [Example 41]", "unitSymbol": "nM", "observed": 4540}
{"compound": "CCCCN(C[C@H]1CC[C@H](CNC(=O)OC(C)(C)C)CC1)S(=O)(=O)c1ccc2ccccc2c1 [Example 85]", "unitSymbol": "nM", "observed": 6690}

[A] Cc1cc(C(=O)NC[C@H]2CC[C@H](CNC(=O)OC(C)(C)C)CC2)cc(-c2ccccc2)n1 [Example 43]
[B] CN1CCN(c2ccc(-c3cc(C(=O)NC[C@H]4CC[C@H](CNC(=O)OC(C)(C)C)CC4)c4ccccc4n3)cn2)CC1 [Example 1]
[C] CCOC(=O)NC[C@H]1CC[C@H](CNC(=O)c2cc(-c3ccc(C)cc3)nc3ccccc23)CC1 [Example 28]
[D] Cc1nc(-c2ccc(S(=O)(=O)NC[C@H]3CC[C@H](CNC(=O)OC(C)(C)C)CC3)s2)cs1 [Example 70]
[E] CNS(=O)(=O)c1ccc(-c2cc(C(=O)NC[C@H]3CC[C@H](CNC(=O)OC(C)(C)C)CC3)c3ccccc3n2)cc1 [Example 134]
Reorder the items by IC50, least to greatest. Sort and list the labels as requested.
B, E, C, D, A
(B: 50 nM, E: 100 nM, C: 1170 nM, D: 2850 nM, A: 5820 nM)

====

Target: Human recombinant Acetyl-CoA Carboxylase 2 (ACC2) (Homo sapiens, UniProt O00763)
Sequence (O00763 whole entry): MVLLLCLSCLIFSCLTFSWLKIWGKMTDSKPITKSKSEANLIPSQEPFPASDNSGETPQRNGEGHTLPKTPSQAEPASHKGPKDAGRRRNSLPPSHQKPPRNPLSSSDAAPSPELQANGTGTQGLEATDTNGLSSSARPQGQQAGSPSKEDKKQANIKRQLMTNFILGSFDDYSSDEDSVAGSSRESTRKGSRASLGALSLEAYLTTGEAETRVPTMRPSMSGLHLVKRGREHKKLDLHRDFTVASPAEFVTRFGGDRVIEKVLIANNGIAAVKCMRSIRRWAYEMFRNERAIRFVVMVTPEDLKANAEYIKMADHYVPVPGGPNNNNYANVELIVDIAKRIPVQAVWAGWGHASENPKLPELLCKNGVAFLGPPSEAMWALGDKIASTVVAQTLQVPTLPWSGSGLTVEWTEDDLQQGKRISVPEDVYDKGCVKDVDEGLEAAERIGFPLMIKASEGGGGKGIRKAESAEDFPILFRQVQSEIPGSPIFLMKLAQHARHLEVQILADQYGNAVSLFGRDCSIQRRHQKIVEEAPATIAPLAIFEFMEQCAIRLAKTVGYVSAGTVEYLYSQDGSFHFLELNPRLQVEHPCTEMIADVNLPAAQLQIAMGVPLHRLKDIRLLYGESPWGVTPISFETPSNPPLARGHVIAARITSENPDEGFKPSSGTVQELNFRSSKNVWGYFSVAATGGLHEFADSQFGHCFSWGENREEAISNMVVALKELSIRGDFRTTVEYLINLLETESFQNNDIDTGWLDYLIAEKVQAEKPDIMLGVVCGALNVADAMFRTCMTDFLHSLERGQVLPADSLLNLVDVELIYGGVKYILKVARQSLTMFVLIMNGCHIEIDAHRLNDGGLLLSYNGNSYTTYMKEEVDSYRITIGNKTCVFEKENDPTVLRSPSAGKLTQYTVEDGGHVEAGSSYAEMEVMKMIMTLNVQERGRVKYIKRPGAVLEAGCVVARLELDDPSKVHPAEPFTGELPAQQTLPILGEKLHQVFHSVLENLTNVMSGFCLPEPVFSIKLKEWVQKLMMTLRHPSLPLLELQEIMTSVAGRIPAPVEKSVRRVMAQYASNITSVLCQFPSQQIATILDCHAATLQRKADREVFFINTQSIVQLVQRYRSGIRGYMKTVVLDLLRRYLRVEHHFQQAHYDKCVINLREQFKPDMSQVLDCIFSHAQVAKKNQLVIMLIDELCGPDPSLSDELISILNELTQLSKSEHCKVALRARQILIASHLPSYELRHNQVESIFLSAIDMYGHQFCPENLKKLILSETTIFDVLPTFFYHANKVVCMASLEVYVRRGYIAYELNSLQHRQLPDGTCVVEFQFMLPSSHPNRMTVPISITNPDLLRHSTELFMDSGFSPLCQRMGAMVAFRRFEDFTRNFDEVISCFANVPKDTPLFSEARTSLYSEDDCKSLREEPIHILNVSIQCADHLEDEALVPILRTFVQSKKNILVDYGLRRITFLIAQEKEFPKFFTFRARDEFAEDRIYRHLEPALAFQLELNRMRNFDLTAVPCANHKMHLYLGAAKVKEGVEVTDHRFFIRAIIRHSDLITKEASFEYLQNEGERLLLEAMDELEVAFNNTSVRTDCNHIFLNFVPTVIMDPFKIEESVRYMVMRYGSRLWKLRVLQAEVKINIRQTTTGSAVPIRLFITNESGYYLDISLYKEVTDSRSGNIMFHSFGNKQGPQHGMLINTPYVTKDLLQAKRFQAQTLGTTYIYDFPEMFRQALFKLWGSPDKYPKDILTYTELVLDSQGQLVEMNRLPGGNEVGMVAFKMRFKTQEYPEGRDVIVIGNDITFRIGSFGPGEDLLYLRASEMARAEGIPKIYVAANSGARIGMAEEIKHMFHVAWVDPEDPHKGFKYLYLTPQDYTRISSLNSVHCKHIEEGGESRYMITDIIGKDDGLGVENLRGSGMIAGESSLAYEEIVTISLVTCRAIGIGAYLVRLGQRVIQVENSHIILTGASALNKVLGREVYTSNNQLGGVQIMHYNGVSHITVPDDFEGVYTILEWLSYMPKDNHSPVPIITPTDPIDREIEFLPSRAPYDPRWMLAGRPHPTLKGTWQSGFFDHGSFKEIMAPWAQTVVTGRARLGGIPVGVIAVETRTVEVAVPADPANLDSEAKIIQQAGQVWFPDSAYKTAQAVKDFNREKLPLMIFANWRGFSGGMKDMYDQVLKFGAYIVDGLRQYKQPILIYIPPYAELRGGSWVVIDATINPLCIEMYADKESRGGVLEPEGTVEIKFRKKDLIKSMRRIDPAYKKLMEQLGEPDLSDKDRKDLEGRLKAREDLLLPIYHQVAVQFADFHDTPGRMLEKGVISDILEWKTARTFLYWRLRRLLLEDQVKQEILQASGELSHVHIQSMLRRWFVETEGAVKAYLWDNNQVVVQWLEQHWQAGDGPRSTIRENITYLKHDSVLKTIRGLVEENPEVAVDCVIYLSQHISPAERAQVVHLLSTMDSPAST
Experiment: Assay Y: ACC2 inhibition, inorganic phosphate (Malachite Green)
Type: biochemical
Details: Assay Y: room temperature, 3 hr, 15 min preincubation
Method: Preincubation of 6 μL enzyme together with 0.3 μL compound for 15 min was done before the reaction was initiated by the addition of 4 μL substrate. […] After 3 hr the reaction was stopped by addition of 60 μL of water followed by 30 μL Malachite Green solution. […] Plates were left for 10 min at room temperature before reading the absorbance at 670 nm. […]
quantityName: IC50 (µM)

{"sampleSmiles": "Cc1nc(-c2cccc(S(=O)(=O)NC[C@H]3CC[C@H](CNC(=O)OC(C)(C)C)CC3)c2)no1", "systemUnderTest": "Human recombinant Acetyl-CoA Carboxylase 2 (ACC2) (Homo sapiens, UniProt O00763)", "unitSymbol": "µM", "IC50": 4.27}

[a] CCCOC(=O)NC[C@H]1CC[C@H](CNC(=O)c2cc(-c3ccncc3)nc3ccccc23)CC1
[b] CC(C)(C)OC(=O)NC[C@H]1CC[C@H](CNS(=O)(=O)c2cccc3cnccc23)CC1
[c] CC(C)(C)OC(=O)NC[C@H]1CC[C@H](CNC(=O)c2cc(-c3ccc(N4CC[C@@H](O)C4)nc3)nc3ccccc23)CC1
Rank items: key IC50, increasing. Response format: the labels, sorted as the prompt asks.
c, a, b

[I] CC(C)(C)OC(=O)NC[C@H]1CC[C@H](CNC(=O)c2cc(-c3cncnc3)nc3ccccc23)CC1
[II] CCN(C[C@H]1CC[C@H](CNC(=O)OC(C)(C)C)CC1)S(=O)(=O)c1ccc2ccccc2c1
Please indicate which has the smaller reported IC50: I , or II . Mark your selection by writing its label.
I
(I: 1.14 µM, II: 5.4 µM)
